Source: ChEMBL document CHEMBL4330100

tested on: UniProtKB P03372
Sequence (P03372 whole entry): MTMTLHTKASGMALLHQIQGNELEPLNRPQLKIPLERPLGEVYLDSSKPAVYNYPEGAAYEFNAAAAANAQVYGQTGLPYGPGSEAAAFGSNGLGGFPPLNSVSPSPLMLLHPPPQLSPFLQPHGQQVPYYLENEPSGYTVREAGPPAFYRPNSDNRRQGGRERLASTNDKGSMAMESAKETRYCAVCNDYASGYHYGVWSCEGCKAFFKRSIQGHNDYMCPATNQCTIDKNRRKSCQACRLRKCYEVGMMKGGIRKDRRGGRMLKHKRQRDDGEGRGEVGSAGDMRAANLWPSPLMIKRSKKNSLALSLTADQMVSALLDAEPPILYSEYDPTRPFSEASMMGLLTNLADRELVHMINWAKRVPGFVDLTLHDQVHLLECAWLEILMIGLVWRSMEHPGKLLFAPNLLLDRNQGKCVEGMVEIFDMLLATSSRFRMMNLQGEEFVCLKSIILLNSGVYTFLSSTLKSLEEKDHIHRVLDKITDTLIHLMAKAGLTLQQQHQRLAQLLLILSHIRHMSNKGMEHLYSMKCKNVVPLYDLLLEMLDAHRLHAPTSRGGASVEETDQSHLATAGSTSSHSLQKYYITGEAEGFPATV
test details: Induction of ERalpha degradation in human MCF7 cells in phenol red free RPMI medium containing 5% charcoal-stripped FBS incubated for 4 hrs by IRDye 800CW/DRAQ5 dye based in-cell Western assay
experimental endpoint: EC50 (nM)

INSERT INTO measurements (smiles_representation, uom, quantitative_result) VALUES
  ('O=C(O)/C=C/c1ccc(/C(=C(\c2ncc(C(F)(F)F)cc2Cl)C2CCC2)c2ccc3scnc3c2)cc1', 'nM', 1.1),
  ('N#Cc1cc(Cl)ccc1/C(=C(\c1ccc(/C=C/C(=O)O)cc1)c1ccc(-c2cn[nH]c2)cc1)C1CCC1', 'nM', 1.1);

I = COc1ccc(/C(=C(\c2ccc(/C=C/C(=O)O)cc2)c2ccc(-c3cn[nH]c3)cc2)C2CCC2)c(Cl)c1
II = CC/C(=C(/c1ccc(/C=C/C(=O)O)cc1)c1ccn2nncc2c1)c1ccccc1
III = CC/C(=C(/c1ccc(/C=C/C(=O)O)cc1)c1ccc2scnc2c1)c1ccccc1
IV = CC/C(=C(/c1ccc(/C=C/C(=O)O)cc1)c1ccc(-c2cnn(C)c2)cc1)c1ccccc1
V = CC/C(=C(/c1ccc(/C=C/C(=O)O)cc1)c1ccc2sncc2c1)c1ccccc1
Sort low-to-high on EC50, please. Ranked list of labels, please, in the requested order. I, IV, III, V, II
